Test: Physical and processing (bulk) properties of crystalline forms
Format: physicochemical
Settings: TABLE II, crystalline forms of aztreonam
observation_type: Surface Area

[in] Recorded Surface Area for C[C@H]1[C@H](NC(=O)/C(=N\OC(C)(C)C(=O)O)c2csc(N)n2)C(=O)N1S(=O)(=O)O [δ-Form] , please?
[out] low

[in] Recorded Surface Area for C[C@H]1[C@H](NC(=O)/C(=N\OC(C)(C)C(=O)O)c2csc(N)n2)C(=O)N1S(=O)(=O)O [γ-Form] , please?
[out] high

[in] Recorded Surface Area for C[C@H]1[C@H](NC(=O)/C(=N\OC(C)(C)C(=O)O)c2csc(N)n2)C(=O)N1S(=O)(=O)O [β-Form] , please?
[out] low

[in] Recorded Surface Area for C[C@H]1[C@H](NC(=O)/C(=N\OC(C)(C)C(=O)O)c2csc(N)n2)C(=O)N1S(=O)(=O)O [α-Form] , please?
[out] high
